The measured values listed here are drawn from PubChem BioAssay (NCI).

- Test system: SNB-75 CNS
- assay text: NCI tumour cell line growth inhibition, 48 h
endpoint: TGI (µM)
# value in µM; strip the unit string

compound="CC(C)=CCc1cc(O)cc2c1OC(C=C(C)C)C1=C2C(=O)C2=C(NCCS2(=O)=O)C1=O (stereo unspecified)" assay_target="SNB-75 CNS" readout_value=4.86
compound=CC1(C)OCCn2c1nc1c(N3CCOCC3)nc(-c3cnc(N)nc3)nc12 assay_target="SNB-75 CNS" readout_value=0.817

Now look at this one.
Q. // lookup TGI for O=C(NC(CO)Cc1ccc(Oc2cc(CC(CO)NC(=O)OCc3ccccc3)ccc2OC(=O)OCc2ccccc2)cc1)OCc1ccccc1 (stereo unspecified)
A. 51.1
